Entries annotated with measured IC50
TARGET OF ASSAY: recombinant human GR (Homo sapiens)
Sequence (P04150 1-777): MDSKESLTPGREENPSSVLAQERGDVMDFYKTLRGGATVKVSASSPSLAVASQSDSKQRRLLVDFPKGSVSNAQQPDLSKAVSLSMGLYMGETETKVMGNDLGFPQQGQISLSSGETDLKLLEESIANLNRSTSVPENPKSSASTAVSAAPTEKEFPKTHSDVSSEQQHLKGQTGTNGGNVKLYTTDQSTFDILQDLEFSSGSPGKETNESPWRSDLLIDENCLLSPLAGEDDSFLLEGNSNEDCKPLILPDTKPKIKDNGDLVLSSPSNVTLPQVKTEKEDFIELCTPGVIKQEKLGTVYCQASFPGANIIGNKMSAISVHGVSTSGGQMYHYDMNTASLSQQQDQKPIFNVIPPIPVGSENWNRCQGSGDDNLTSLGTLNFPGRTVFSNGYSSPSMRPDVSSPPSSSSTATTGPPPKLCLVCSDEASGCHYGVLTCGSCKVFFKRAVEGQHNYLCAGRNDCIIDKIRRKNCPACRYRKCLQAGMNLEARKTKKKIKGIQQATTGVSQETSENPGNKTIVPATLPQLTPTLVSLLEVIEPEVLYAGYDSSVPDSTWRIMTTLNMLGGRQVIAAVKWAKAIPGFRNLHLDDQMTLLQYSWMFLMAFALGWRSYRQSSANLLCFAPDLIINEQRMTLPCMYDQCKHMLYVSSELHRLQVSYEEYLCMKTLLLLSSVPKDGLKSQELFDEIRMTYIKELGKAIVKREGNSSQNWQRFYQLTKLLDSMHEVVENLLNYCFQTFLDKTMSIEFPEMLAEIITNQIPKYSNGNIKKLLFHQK
PROTOCOL SUMMARY: Human Glucocorticoid Receptor (GR) Assay, fluorescence polarization
CONDITION: GS Red tracer, 2 hours at room temperature
MEASURE: IC50 (nM)

SMILES STRING | TARGET OF ASSAY | MEASURE | OUTPUT UNIT | OBS VALUE
N#Cc1cccc(S(=O)(=O)NCc2ccc(-c3ccc(Cl)cc3)s2)c1 | recombinant human GR (Homo sapiens) | IC50 | nM | 820
O=S(=O)(NCc1ccc(-c2ccc(Cl)cc2)s1)c1ccc(F)cc1 | recombinant human GR (Homo sapiens) | IC50 | nM | 62
Cc1c(S(=O)(=O)Nc2cccc(CCc3ccccn3)c2)cnn1-c1ccccc1 | recombinant human GR (Homo sapiens) | IC50 | nM | 99
O=S(=O)(NCc1ccc(-c2ccc(Cl)cc2)s1)c1ccccc1Br | recombinant human GR (Homo sapiens) | IC50 | nM | 170
Cc1ccc(C)c(S(=O)(=O)Nc2cccc(CCc3ccccn3)c2)c1 | recombinant human GR (Homo sapiens) | IC50 | nM | 350
O=[N+]([O-])c1ccc(S(=O)(=O)NCc2ccc(-c3ccc(Cl)cc3)s2)cc1 | recombinant human GR (Homo sapiens) | IC50 | nM | 59
COc1ccc(S(=O)(=O)NCc2ccc(-c3ccc(Cl)cc3)s2)cc1 | recombinant human GR (Homo sapiens) | IC50 | nM | 200
COc1cccc(S(=O)(=O)NCc2ccc(-c3ccc(Cl)cc3)s2)c1 | recombinant human GR (Homo sapiens) | IC50 | nM | 310
CCCCOc1ccc(S(=O)(=O)NCc2c(-c3ccccc3)noc2C)cc1 | recombinant human GR (Homo sapiens) | IC50 | nM | 700

Taken from patent US20110130426A1.
